System: T-47D breast
measurement notes: NCI-60 one-dose screen, 48 h (100 = growth as untreated, 0 = no growth, -100 = all killed)
assay context: 10 µM unless noted
The panel holds about 83,000 compounds, 20% with a hit somewhere; the sample as a whole holds those more often.
So basically, if growth comes in under 60% it's TRUE, and if it's 60% or more it's FALSE.

Look over these answered cases.
[
  {
    "molecule": "O=C(O)CC1Sc2ccccc2NC1=O (stereo not given)",
    "assigned category": "FALSE"
  },
  {
    "molecule": "CC(=[N-])N1CCC[C@@H](Nc2c3ccccc3nc3ccccc23)C1.[Cl][Pt].[NH-]CCC[NH-]",
    "assigned category": "TRUE"
  },
  {
    "molecule": "O=C(/C=C/C12c3ccccc3C(c3ccccc31)C1C(=O)NC(=O)C12)c1ccc(Cl)cc1 (stereo not given)",
    "assigned category": "TRUE"
  },
  {
    "molecule": "CCOC(=O)c1nnn(C(Cc2ccccc2Cl)C(=O)OCC)c1C (stereo not given)",
    "assigned category": "FALSE"
  },
  {
    "molecule": "CCc1cc(Cc2cc(CC)cc(C(C)(C)C)c2O)c(O)c(C(C)(C)C)c1",
    "assigned category": "TRUE"
  },
  {
    "molecule": "CCCc1cc(=O)oc2c3c(c4c(c12)OC(C)(C)C=C4)O[C@@H](C)[C@H](C)C3=O",
    "assigned category": "TRUE"
  },
  {
    "molecule": "COc1cc(-c2ccc(-c3ccc(C(=N)N)nc3)s2)cc(OC)c1OC",
    "assigned category": "FALSE"
  },
  {
    "molecule": "CN1C[C@@H](c2ccc(Cl)cc2)[C@]2(NC(=S)N(c3ccccc3)C2=O)[C@@]12C(=O)NC1C=CC(Br)=C[C@H]12 (stereo not given in full)",
    "assigned category": "TRUE"
  },
  {
    "molecule": "Cc1nc(Nc2ccc(NC(=S)Nc3ccccc3)cc2)nc2nc(Nc3ccc(S(=O)(=O)O)cc3)[nH]c(=O)c12",
    "assigned category": "FALSE"
  },
  {
    "molecule": "CC(=O)c1cc2c(o1)C(=O)c1ccccc1C2=O",
    "assigned category": "TRUE"
  }
]

Prompt: Find out if reported growth for N=C(N)c1ccc(-c2ccc(-c3ccc(Cl)c(Cl)c3)o2)cc1 is less than 60%
Response: FALSE

Prompt: Does the reported growth of the following molecule sit strictly below 60%? Nc1ccc(CCCCc2ccccc2)c(Cl)c1
Response: FALSE

Prompt: API: query returns whether the molecule falls strictly under 60% in growth. Query: CCCCCCCC/C=C/CCCCCCCC1=NCC[N+]1(CCO)CCO
Response: FALSE

Prompt: Criterion: growth strictly below 60%. Is it met by COc1cc(-c2ccc(N=Nc3c(O)c(C(=O)Nc4ccccc4OC)cc4ccccc34)c(OC)c2)ccc1N=Nc1c(O)c(C(=O)Nc2ccccc2OC)cc2ccccc12 ?
Response: FALSE

Prompt: Given the entry CCCCCCCCc1cc[n+](CC(=O)c2ccc(Br)cc2)cc1 , would its reported growth be below 60%?
Response: TRUE

Prompt: For this molecule, is growth lower than 60%? Cc1nc(Nc2ccc(NC(=S)Nc3ccccc3)cc2)c2ccccc2n1
Response: FALSE

Prompt: Is growth strictly under 60% for the entry CCc1nc2ccccc2[nH]1 ?
Response: FALSE

Prompt: Hello, I'm reviewing records and need to know if growth of CC(C)OC(=O)NNC(=O)c1ccncc1 is below 60%. Could you check?
Response: FALSE

Prompt: Please indicate whether the reported growth of CCCCN1CCN(c2ccc3nc(-c4ccc5nc(-c6cc(OC)c(OC)c(OC)c6)[nH]c5c4)[nH]c3c2)CC1 is strictly below 60%.
Response: FALSE

Prompt: Strictly below 60%: is that where growth of c1ccc([P+](CCCc2n(Cc3ccc4ccccc4c3)c3ccccc3[n+]2Cc2ccc3ccccc3c2)(c2ccccc2)c2ccccc2)cc1 sits?
Response: TRUE

Prompt: Dear colleague, could you confirm whether growth of CCOc1ccc(S(=O)(=O)c2ccc(C)cc2)c2c1no[n+]2[O-] falls below 60%? Thanks.
Response: TRUE

Prompt: Does this molecule meet the criterion growth < 60%? COc1cc2c(cc1OC)-c1ccc3cc4c(cc3c1N(CCCN(C)C)C2)OCO4
Response: TRUE

Prompt: In the record for Cc1cnc(Nc2ccc(N3CCN(C)CC3)cc2)nc1Nc1ccc(Cl)c(NS(=O)(=O)C(C)(C)C)c1 , is growth less than 60%?
Response: TRUE

Prompt: Does the reported growth of COc1ccc(/C(C)=N/NS(=O)(=O)c2ccc(C)cc2)cc1OC stay below 60%?
Response: FALSE

Prompt: A record lists COc1ccc(/C(C)=C(\c2ccc(Cl)cc2)c2ccc(OCCN3CCCCC3)cc2)cc1F . Is its growth below 60%?
Response: TRUE

Prompt: Threshold test, growth < 60%: CCOc1cc(N)ccc1C(=O)NCCCN(CC)CC
Response: FALSE

Prompt: Does this molecule meet the criterion growth < 60%? COc1cc2c(cc1OC)-c1ccc3cc4c(cc3c1N(CCCn1ccnc1)C2)OCO4
Response: TRUE

----------
Recorded growth values for a group of compounds are listed next.
System: UO-31 renal
measurement notes: NCI-60 one-dose screen, 48 h (100 = growth as untreated, 0 = no growth, -100 = all killed)
assay context: 10 µM unless noted
This is part of a sample that, as a whole, favours compounds with a hit. Of some 83,000 tested, about 20% had one in any assay. Active and inactive are the calls of the source. Rule for the calls: active = growth percent below 10; inactive = the rest.

[
  {
    "compound": "O=S(=O)(NCCNc1cc(-c2c(-c3cccc(O)c3)nc3sccn23)ccn1)c1ccc(Br)cc1",
    "data value": "-1.33% (active)"
  }
]

The reported value for CCCCN(CCCC)CCCn1c(=O)c2sc3ncccc3c2n2nnc(-c3ccccc3)c12 in terms of growth is 48.1% (inactive)

growth measured on CN1CCN(c2ccc3nc(/N=C/c4ccc5sc(-c6ccc([N+](=O)[O-])cc6)nc5c4)sc3c2)CC1 = 92.2% (inactive)

----------
Test system: SK-OV-3 ovarian
measurement notes: NCI-60 one-dose screen, 48 h (100 = growth as untreated, 0 = no growth, -100 = all killed)
assay context: 10 µM unless noted
About 83,000 compounds went through this panel and 20% of them were active in at least one assay; those are over-represented in the sample as a whole.
Rule: growth below 60% gives 1 (yes). Equal to or above 60% gives 0 (no).

For orientation, consider the following solved cases.
[
  {
    "molecule": "NC(N)=N/N=C(/c1ccccc1)c1ccc(N)cc1",
    "measurement target": "SK-OV-3 ovarian",
    "assigned category": "0 (no)"
  },
  {
    "molecule": "O=C1C2=C(CCN(Cc3ccccc3)C2)N2CCN=C2N1Cc1ccc(F)cc1F",
    "measurement target": "SK-OV-3 ovarian",
    "assigned category": "1 (yes)"
  },
  {
    "molecule": "Cc1cc(Cl)nc(N(CCCNc2ccnc3cc(Cl)ccc23)Cc2ccccn2)n1",
    "measurement target": "SK-OV-3 ovarian",
    "assigned category": "0 (no)"
  },
  {
    "molecule": "Cc1ccc(S(=O)(=O)NN/C(N)=N\\S(=O)(=O)c2cc(C)c(Cl)cc2SCc2ccccc2)cc1",
    "measurement target": "SK-OV-3 ovarian",
    "assigned category": "0 (no)"
  },
  {
    "molecule": "COc1ccc(/C(C)=C(\\c2ccc(Cl)cc2)c2ccc(OCCN3CCCCC3)cc2)cc1F",
    "measurement target": "SK-OV-3 ovarian",
    "assigned category": "0 (no)"
  },
  {
    "molecule": "Cc1nc(Nc2ccc(NC(=S)Nc3ccccc3)cc2)nc2nc(Nc3cccc(Cl)c3)[nH]c(=O)c12",
    "measurement target": "SK-OV-3 ovarian",
    "assigned category": "0 (no)"
  }
]

Prompt: Below 60% on growth? Entry COC1(CC[C@@H](C)COC2OC(CO)C(O)C(O)C2O)O[C@H]2C[C@H]3[C@@H]4CC=C5C[C@@H](OC6OC(CO)C(OC7OC(C)C(O)C(O)C7O)C(O)C6OC6OC(C)C(O)C(O)C6O)CC[C@]5(C)[C@H]4CC[C@]3(C)[C@H]2[C@@H]1C (some centres not stated)
Response: 1 (yes)

Prompt: Lab note: growth threshold 60%. Does this molecule come in strictly under it? C=C(C)[C@@H]1CC[C@]2(CO)CC[C@]3(C)[C@H](CC[C@@H]4[C@@]5(C)C=C(C#N)C(=O)C(C)(C)[C@@H]5CC[C@]43C)[C@@H]12
Response: 1 (yes)

Prompt: Lab note: confirm whether the reported growth for this molecule is below 60%, equality not counting. molecule: CO/C(=C1/NC(=O)C(Cc2ccc(O)c(Br)c2)N(C)C(=O)C(C)NC(=O)CCC/C=C(\C)CCC(C)OC1=O)c1ccccc1 (configuration not stated)
Response: 1 (yes)

Prompt: Input NC(=S)c1csc(CCNC(=O)c2ccccc2)n1 ; condition: growth strictly below 60%. Does it hold?
Response: 0 (no)

Prompt: Given Cc1c2c(cn1Cc1ccccc1)CCc1cn[nH]c1-2 , is recorded growth strictly lower than 60%?
Response: 0 (no)

Prompt: Regarding C[C@@H]1C(=O)N(C[C@H](Cc2ccccc2)N(Cc2ccccc2)Cc2ccccc2)[C@]1(Cc1ccccc1)C(=O)OC(C)(C)C , kindly confirm whether its growth is beneath 60%.
Response: 0 (no)

// data source = PubChem BioAssay (NCI)
